Please find below IC50 data on Cytochrome P450 2C9 (Homo sapiens, UniProt P11712) compiled from the literature.

Compound | Assay Result
C[C@@H]1CN(c2cc(F)c3c(c2)N(C)C(=O)C32CCN(c3nc4c(c(=O)[nH]3)CCCN4C)CC2)C[C@H](C)O1 | > 10 µM
O=S(=O)(CC[C@@H]1OCC[C@@]2(S(=O)(=O)c3ccc(Cl)cc3)c3c(F)ccc(F)c3OC[C@@H]12)CC1=NCCN1 | > 20 µM
CC1(c2ccccc2)CCCN(C(=O)NCCc2ccc(Cl)cc2)C1 (stereo not given) | > 10 µM
O=C(N[C@H]1C[C@@H]1c1ccccc1)N1CCC2(CCc3cc(F)ccc3O2)CC1 (racemic) | < 10 µM

What does the data say about its IC50? Entry: COC(=O)C1CCN(C(=O)c2ccc(CS(=O)(=O)c3ccc4nc(N)sc4c3)cc2)CC1 < 10 µM

----------
Across several publications, the following IC50 results were reported for Cytochrome P450 2C9 (Homo sapiens, UniProt P11712).
Assay Readout: IC50 (µM)

a: Cc1cc(C(=O)N(C)C)cc2[nH]c(-c3c(NCC(O)c4cccc(Cl)c4)cc[nH]c3=O)nc12 (configuration not stated)
b: O=C(O)c1c(O)c(-c2ccc(Cl)cc2)nc2c(-c3ccccc3)cccc12
c: CN(C)Cc1ccc(/C=C/c2n[nH]c3cc(/C=C4/C(=O)Nc5ccccc54)ccc23)cc1
Please rank everything listed above by IC50, with the minimum value first. Please respond by ranking the labels in the order requested. c, a, b
(c: 1.3 µM, a: 2.8 µM, b: 8.2 µM)

----------
Collected set of IC50 measured with Cytochrome P450 2C9 (Homo sapiens, UniProt P11712) across studies.

Answered cases to consult:
Smiles Data | IC50
CC(C)C[C@H](NC(=O)[C@H](CCc1ccccc1)NC(=O)CN1CCOCC1)C(=O)N[C@@H](Cc1ccccc1)C(=O)N[C@@H](CC(C)C)C(=O)[C@@]1(C)CO1 | > 10 µM
O=C(Nc1ccc(C[C@@H]2CC[C@H]([C@H](O)c3cccnc3)N2)cc1)[C@@H]1CCc2scnc21 | > 100 µM

Which IC50 value belongs to Cc1cc2c(cc1F)c(C#N)c(-c1ccc(S(=O)(=O)N[C@@H](C)C(F)(F)F)cn1)n2-c1ncc(F)cn1 ? > 10 µM

Another compound to check: O=C(O)CN1CCC2(CC1)CCN(c1ccc(-c3nc4cc(C(F)(F)F)ccc4[nH]3)cn1)CC2 > 50 µM

----------
Collected from the literature: IC50 of various molecules toward UniProt:P11712.

Molecule | IC50
COC(=O)C1CCN(C(=O)c2ccc(CNC(=O)c3ccc4nc(N)sc4c3)cc2)CC1 | > 25 µM
O=c1cc(CCCC2CC2)c2c(=O)[nH]c(C(F)F)nc2o1 | > 50 µM
CCc1sc2ncnc(N[C@H](Cc3ccccc3)C(=O)O)c2c1-c1ccc(OCCN2CCN(C)CC2)c(Cl)c1C (stereo in doubt; 17a) | ≥ 20 µM
COc1cc(Nc2ncc(-c3ccc4ccccc4n3)c(N[C@@H]3C[C@H](CO)[C@@H](O)[C@H]3O)n2)ccn1 | > 50 µM
COC[C@H]1CCCN1c1cc(NC(C)=O)nc(-n2nc(C)cc2C)n1 | > 50 µM
Cc1cc2nn(Cc3cc([C@@H]4O[C@H](CO)[C@@H](O)[C@H](O)[C@H]4O)ccc3Cl)c(=O)n2cc1Cl | > 11 µM
C[C@@H](O[C@H]1CC[C@]2(CCC(F)(F)CO2)CC1)c1nc(-c2cc(F)c(CS(C)(=O)=O)c(F)c2)no1 | > 50 µM

Here's the next entry for you.
Name the reported IC50 value associated with the molecule O=C(c1ccccc1)N1CCn2nc(-c3ccccn3)cc2C1 > 50 µM
